Exercise: state measured Neuronal cell viability, loss (cell loss by morphology/cell count) for each of the compounds provided.
test system: neurons; test: Neuronal viability by morphological analysis and cell count in 4-organ system; settings: 4-organ co-culture under flow, serum-free medium, 48 h drug treatment, day 7, vs control; DOX 5 μM, ATR 100 μM, VPA 2 mM, APAP 5 mM, AMAP 5 mM

State recorded Neuronal cell viability, loss (cell loss by morphology/cell count) with neurons, entry CC(=O)Nc1ccc(O)cc1 , no comment.
50 ± 18% loss of cell viability

Recall the reported Neuronal cell viability, loss (cell loss by morphology/cell count) of CC(C)c1c(C(=O)Nc2ccccc2)c(-c2ccccc2)c(-c2ccc(F)cc2)n1CC[C@@H](O)C[C@@H](O)CC(=O)O when tested on neurons.
47 ± 14% loss of cell viability

State recorded Neuronal cell viability, loss (cell loss by morphology/cell count) with neurons, entry COc1cccc2c1C(=O)c1c(O)c3c(c(O)c1C2=O)C[C@@](O)(C(=O)CO)C[C@@H]3O[C@H]1C[C@H](N)[C@H](O)[C@H](C)O1 , no comment.
33 ± 13% loss of cell viability

====

system: Human Skeletal Myofibers; assay: MTT viability of skeletal muscle module in 4-organ system; conditions: 4-organ co-culture under flow, serum-free medium, 48 h drug treatment, day 7, vs control; DOX 5 μM, ATR 100 μM, VPA 2 mM, APAP 5 mM, AMAP 5 mM

COMPOUND	Skeletal muscle viability, loss
CC(=O)Nc1ccc(O)cc1 [Acetaminophen]	Toxicity not observed
CC(C)c1c(C(=O)Nc2ccccc2)c(-c2ccccc2)c(-c2ccc(F)cc2)n1CC[C@@H](O)C[C@@H](O)CC(=O)O [Atorvastatin]	30 ± 15% loss
CC(=O)Nc1cccc(O)c1 [N-Acetyl-m-aminophenol]	Toxicity not observed
COc1cccc2c1C(=O)c1c(O)c3c(c(O)c1C2=O)C[C@@](O)(C(=O)CO)C[C@@H]3O[C@H]1C[C@H](N)[C@H](O)[C@H](C)O1 [Doxorubicin]	Toxicity not observed
